Recorded values, source patent US8178543B2.

Study target: HER2 intracellular domain (Homo sapiens, UniProt P04626)
Construct: made in house; host or cells: SF-21 insect cells, recombinant baculovirus BAC-HER2
Sequence (P04626 676-1255 limits assumed): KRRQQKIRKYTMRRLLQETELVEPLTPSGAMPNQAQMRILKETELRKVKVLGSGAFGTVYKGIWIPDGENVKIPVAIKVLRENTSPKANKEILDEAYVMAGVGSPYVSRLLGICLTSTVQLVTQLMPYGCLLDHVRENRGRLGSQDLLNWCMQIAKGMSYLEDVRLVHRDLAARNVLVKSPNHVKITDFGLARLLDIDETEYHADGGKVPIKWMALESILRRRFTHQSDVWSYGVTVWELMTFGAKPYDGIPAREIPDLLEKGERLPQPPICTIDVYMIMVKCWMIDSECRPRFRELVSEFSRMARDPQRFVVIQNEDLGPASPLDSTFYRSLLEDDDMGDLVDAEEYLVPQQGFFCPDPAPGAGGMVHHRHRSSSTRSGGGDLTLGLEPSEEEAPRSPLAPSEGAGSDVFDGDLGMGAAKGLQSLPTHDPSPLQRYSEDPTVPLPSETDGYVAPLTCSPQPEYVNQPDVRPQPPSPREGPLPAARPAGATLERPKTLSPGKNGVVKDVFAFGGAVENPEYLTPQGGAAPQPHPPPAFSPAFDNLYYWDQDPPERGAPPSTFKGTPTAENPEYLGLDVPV
Test name: Determination of HER2 kinase inhibitory activity
Assay type: biochemical
Condition summary: 1.0 μM test compound; poly-Glu:Tyr (4:1) substrate, [γ-32P]ATP, 25° C., 10 min; read-out: HER2 kinase Inhibitory rate (%) at 1.0 μM
Task for the reader: assign each of the following compounds its reported inhibition at 1 µM.
Numbers only, in %.

Guide cases for inhibition at 1 µM, answers given:
Report inhibition at 1 µM under test system HER2 intracellular domain (Homo sapiens, UniProt P04626) for CS(=O)(=O)CC(=O)NCCn1ccc2ncnc(Nc3ccc(Oc4cccc(Cl)c4)c(Cl)c3)c21 .
100

Give inhibition at 1 µM for this entry on HER2 intracellular domain (Homo sapiens, UniProt P04626): Cc1ccc(Oc2ccc(Nc3ncnc4cc(/C=C/CO)[nH]c34)cc2C)cn1
94.9

Please indicate recorded inhibition at 1 µM of CC(C)(O)CC(=O)NCCn1ccc2ncnc(Nc3ccc(Oc4cccc(C(F)(F)F)c4)c(Cl)c3)c21 measured with HER2 intracellular domain (Homo sapiens, UniProt P04626).
87

Report inhibition at 1 µM on HER2 intracellular domain (Homo sapiens, UniProt P04626) for this entry: Cn1ccc2ncnc(Nc3ccc(OCc4cccc(F)c4)c(Cl)c3)c21
96.1

# return inhibition at 1 µM of Cc1cc(Nc2ncnc3ccn(CCNC(=O)CS(C)(=O)=O)c23)ccc1Oc1cccc(OC(F)(F)F)c1 (system: HER2 intracellular domain (Homo sapiens, UniProt P04626))
95.9

---
Report inhibition at 1 µM on HER2 intracellular domain (Homo sapiens, UniProt P04626) for this entry: CCOCCn1ccc2ncnc(Nc3ccc(OCc4cccc(F)c4)c(Cl)c3)c21
95.9

* * *

I'd be grateful if you could share measured inhibition at 1 µM for these entries.
Study target: EGF receptor intracellular domain protein (Homo sapiens, UniProt P00533)
Construct: encoding EGF receptor intracellular domain region, so that the protein contains an N-terminal Flag tag; made in house; host or cells: SF-21 insect cells, recombinant baculovirus BAC-EGFR
Sequence (P00533 669-1210 limits assumed): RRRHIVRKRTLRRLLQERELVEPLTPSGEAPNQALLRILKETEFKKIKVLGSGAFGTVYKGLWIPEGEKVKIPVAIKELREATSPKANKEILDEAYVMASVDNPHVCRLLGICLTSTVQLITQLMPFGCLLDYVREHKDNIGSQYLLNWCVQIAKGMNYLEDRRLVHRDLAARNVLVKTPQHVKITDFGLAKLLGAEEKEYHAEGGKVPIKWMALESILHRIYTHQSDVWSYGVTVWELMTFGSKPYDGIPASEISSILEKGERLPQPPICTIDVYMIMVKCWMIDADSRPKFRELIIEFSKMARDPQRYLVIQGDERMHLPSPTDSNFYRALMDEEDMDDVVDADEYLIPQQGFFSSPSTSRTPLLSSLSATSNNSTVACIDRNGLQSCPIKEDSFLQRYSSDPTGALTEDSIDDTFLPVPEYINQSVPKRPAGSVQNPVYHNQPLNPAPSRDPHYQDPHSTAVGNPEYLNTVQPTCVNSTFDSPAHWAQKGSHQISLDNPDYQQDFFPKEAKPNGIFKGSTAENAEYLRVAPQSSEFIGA
Test name: Determination of EGF receptor kinase inhibitory activity
Assay type: biochemical
Condition summary: 1.0 μM test compound; biotinyl-poly-Glu:Tyr (4:1), AlphaScreen, 25° C., 10 min; read-out: EGF receptor kinase Inhibitory rate (%) at 1.0 μM
Give bare numbers, in %.

Supply measured inhibition at 1 µM of OCCOCCn1ccc2ncnc(Nc3ccc(Oc4cccc(C(F)(F)F)c4)c(Cl)c3)c21 in your reply.
96

Give inhibition at 1 µM for the following molecule: CN(C)C/C=C/C(=O)NC/C=C/c1cc2ncnc(Nc3ccc(OCc4cccc(F)c4)c(Cl)c3)c2[nH]1
98

Give inhibition at 1 µM for OCCn1ccc2ncnc(Nc3ccc(OCc4cccc(F)c4)c(Cl)c3)c21
98.9

// Input: OCCOCCn1ccc2ncnc(Nc3ccc(OCc4cccc(F)c4)c(Cl)c3)c21 . Output its inhibition at 1 µM only.
99

Return reported inhibition at 1 µM. Input molecule: Cn1c(/C=C/CO)cc2ncnc(Nc3ccc(OCc4cccc(F)c4)c(Cl)c3)c21
98.5

Consider now this further molecule.
Indicate the recorded inhibition at 1 µM value for this molecule: CS(=O)(=O)CC(=O)NCCn1ccc2ncnc(Nc3ccc(Oc4cccc(C(F)(F)F)c4)c(Cl)c3)c21
97
